binders and their reported Kd
# TARGET_UNDER_TEST: T1, falcilysin E132Q single mutant (residues 59-1193) (Plasmodium falciparum, UniProt Q76NL8 59-1193, E132Q)
# T1 sequence (looked up): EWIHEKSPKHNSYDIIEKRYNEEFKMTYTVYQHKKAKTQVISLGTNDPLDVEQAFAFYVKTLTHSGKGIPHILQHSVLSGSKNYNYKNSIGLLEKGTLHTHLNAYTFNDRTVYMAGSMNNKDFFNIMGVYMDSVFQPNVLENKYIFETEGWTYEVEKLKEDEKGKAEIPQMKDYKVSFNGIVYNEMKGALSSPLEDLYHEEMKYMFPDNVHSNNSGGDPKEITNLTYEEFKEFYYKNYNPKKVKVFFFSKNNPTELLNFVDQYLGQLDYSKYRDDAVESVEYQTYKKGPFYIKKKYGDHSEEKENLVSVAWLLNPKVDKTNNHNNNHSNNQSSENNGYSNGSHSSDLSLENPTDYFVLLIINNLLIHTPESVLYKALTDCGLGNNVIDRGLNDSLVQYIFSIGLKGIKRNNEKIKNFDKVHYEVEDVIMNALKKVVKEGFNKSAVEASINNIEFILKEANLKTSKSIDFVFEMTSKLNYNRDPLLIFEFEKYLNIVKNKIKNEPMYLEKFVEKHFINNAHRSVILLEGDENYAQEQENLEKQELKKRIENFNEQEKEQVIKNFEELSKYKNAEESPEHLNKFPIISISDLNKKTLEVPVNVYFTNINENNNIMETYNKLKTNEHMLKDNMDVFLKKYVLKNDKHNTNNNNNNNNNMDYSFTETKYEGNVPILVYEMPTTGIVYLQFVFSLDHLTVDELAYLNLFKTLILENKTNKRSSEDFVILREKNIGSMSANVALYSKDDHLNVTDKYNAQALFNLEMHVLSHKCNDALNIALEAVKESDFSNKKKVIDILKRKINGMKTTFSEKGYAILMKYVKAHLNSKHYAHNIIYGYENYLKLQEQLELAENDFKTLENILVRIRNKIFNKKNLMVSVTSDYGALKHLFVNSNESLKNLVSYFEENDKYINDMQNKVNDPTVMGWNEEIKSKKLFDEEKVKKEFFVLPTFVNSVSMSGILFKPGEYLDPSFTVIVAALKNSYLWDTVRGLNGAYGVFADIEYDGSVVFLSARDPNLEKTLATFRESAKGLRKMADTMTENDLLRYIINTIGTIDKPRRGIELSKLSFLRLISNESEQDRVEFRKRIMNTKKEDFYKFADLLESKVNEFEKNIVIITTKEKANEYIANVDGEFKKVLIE
# ASSAY_COMMENT: ITC
OUTCOME_MEASURE: Kd

binder="VVYPWTQRFFESFGD [hemoglobin β chain peptide (residues V33 to D47)]" outcome_measure=Kd test_result="499 nM"
binder="LSFPTTKTYFPHFD [hemoglobin α chain peptide (residues L34 to D47)]" outcome_measure=Kd test_result="933 nM"
